// data source = ChEMBL document CHEMBL4765447

assay.method.text: Ratio of MIC for inhibition of ATP synthase in bedaquiline-resistant Mycobacterium tuberculosis to MIC for inhibition of ATP synthase in Mycobacterium tuberculosis H37Rv
Overview of reported Ratio across a group of compounds:
reported.metric: Ratio

COc1nc2ccc(Br)cc2cc1[C@@H](c1ccccc1)[C@@](O)(CCN(C)C)c1cccc2ccccc12: 62
O=c1c(NCc2ccccn2)c(-c2ccc(N3CCOCC3)cc2)c1=O: 14.9
O=c1c(NCc2ccccn2)c(Nc2ccc3c(c2)OCO3)c1=O: 7.5
Cc1cc(Nc2c(NCc3ccccn3)c(=O)c2=O)ccc1N1CCSCC1: 5.7

###

Test system: Mycobacterium tuberculosis
assay.method.text: Inhibition of ATP synthase in bedaquiline-resistant Mycobacterium tuberculosis assessed as reduction in bacterial growth incubated for 7 days by microplate alamar blue assay
measurement.conditions: time 7.0 day
reported.metric: log10(MIC=>90) (log10 of the value in µg/mL)

Cc1cc(Nc2c(NCc3ccccn3)c(=O)c2=O)ccc1N1CCSCC1: 0.69
O=c1c(NCc2ccccn2)c(-c2ccc(N3CCOCC3)cc2)c1=O: 0.48
O=c1c(NCc2ccccn2)c(Nc2ccc3c(c2)OCO3)c1=O: 0.58
NNC(=O)c1ccncc1: -1.28
COc1nc2ccc(Br)cc2cc1[C@@H](c1ccccc1)[C@@](O)(CCN(C)C)c1cccc2ccccc12: 0.35
